assaySystem: Gamma-butyrobetaine dioxygenase (Pseudomonas sp. (strain AK-1), UniProt P80193)
Sequence (P80193 whole entry): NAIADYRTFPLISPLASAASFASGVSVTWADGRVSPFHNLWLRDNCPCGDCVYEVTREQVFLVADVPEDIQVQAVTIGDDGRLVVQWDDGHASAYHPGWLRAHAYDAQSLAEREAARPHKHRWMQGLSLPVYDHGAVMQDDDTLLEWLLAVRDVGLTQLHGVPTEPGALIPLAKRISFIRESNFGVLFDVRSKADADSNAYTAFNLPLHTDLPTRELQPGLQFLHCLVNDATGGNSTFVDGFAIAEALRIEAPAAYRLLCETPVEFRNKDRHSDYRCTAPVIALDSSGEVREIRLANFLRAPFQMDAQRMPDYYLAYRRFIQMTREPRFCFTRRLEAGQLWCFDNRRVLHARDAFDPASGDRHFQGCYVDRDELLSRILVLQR
experimentalDetails: Inhibition of Pseudomonas sp. AK1 BBOX using GBBF as substrate after 10 mins in presence of 2OG and Fe2+ using TBS-protected fluorescein probe by fluoride release assay
Measured IC50 of individual entries
Numbers only here, please. The scale is µM.

smiles: O=C(N[C@@H](Cc1ccccc1)C(=O)O)c1nc(Cl)c2ccccc2c1O
assaySystem: Gamma-butyrobetaine dioxygenase (Pseudomonas sp. (strain AK-1), UniProt P80193)
measValue: 13

With those in mind, consider the next molecule.
Query :: Retrieve IC50 measured for `O=C(O)CNC(=O)c1nc(Cl)c2ccccc2c1O` and print it.
Result :: 1.2
